Each entry below carries its recorded Kd.
Target: mouse Rbpj (53-474) K195E (mouse, UniProt P31266 53-474, K195E)
Sequence (P31266 53-474 K195E): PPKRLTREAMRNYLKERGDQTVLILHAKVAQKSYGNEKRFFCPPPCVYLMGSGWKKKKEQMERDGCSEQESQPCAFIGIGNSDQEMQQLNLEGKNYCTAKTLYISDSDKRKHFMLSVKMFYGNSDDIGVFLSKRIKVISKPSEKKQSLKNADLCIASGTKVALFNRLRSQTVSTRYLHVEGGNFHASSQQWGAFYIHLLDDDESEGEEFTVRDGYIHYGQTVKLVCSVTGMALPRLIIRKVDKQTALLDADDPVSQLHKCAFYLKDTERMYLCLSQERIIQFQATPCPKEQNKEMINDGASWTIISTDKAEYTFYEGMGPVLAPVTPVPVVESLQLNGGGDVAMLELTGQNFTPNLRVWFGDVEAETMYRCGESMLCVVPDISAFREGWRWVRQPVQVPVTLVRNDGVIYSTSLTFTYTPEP
Test: ITC

| binder | Kd |
| --- | --- |
| VLLSRKRRRQHGQLWFPEGFKVSEASKK [Notch1 RAM domain peptide (human Notch1 residues 1754-1781)] | ~20 nM |

Let's switch to this binder now.
Query: Kd; subject: SHARP residues 2776-2833 (domain or fragment) RASANENSRFHPGSMPVIDDRPADAGSGAGLRVNTSEGVVLLSYSGQKTEGPQRISAK
21 nM

Origin of values: paper doi:10.1101/2021.09.24.461537
